Reported pKd by item:
TARGET_UNDER_TEST: NrnABs (Bacillus subtilis, UniProt O34600, D156N/D80N)
Sequence (O34600 whole entry D80N/D156N): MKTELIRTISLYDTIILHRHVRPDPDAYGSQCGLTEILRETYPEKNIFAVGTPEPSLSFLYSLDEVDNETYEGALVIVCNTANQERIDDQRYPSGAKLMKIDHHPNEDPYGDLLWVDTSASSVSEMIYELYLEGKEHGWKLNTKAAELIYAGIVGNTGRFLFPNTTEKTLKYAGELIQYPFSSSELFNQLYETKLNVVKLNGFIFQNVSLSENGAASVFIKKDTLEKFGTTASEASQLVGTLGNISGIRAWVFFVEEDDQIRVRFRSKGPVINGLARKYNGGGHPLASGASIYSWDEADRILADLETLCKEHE
PROTOCOL_DETAILS: DRaCALA
In plain terms, pKd is the concentration in mol/L turned into minus its base-10 logarithm.

See these solved cases before continuing.
Q: # return recorded pKd for input `Nc1ncnc2c1ncn2[C@@H]1O[C@H](COP(=O)(O)O[C@H]2[C@@H](O)[C@H](n3cnc4c(N)ncnc43)O[C@@H]2COP(=O)(O)O)[C@@H](O)[C@H]1O`
A: 6.35

Q: Give the value of pKd reported for the following: `Nc1ccn([C@@H]2O[C@H](COP(=O)(O)O)[C@@H](OP(=O)(O)OC[C@H]3O[C@@H](n4cnc5c(N)ncnc54)[C@H](O)[C@@H]3O)[C@H]2O)c(=O)n1`
A: 5.64

Q: Look up and state reported pKd for `Nc1ncnc2c1ncn2[C@@H]1O[C@H](COP(=O)(O)O[C@H]2[C@@H](O)[C@H](n3ccc(=O)[nH]c3=O)O[C@@H]2COP(=O)(O)O)[C@@H](O)[C@H]1O`
A: 5.89

Others:
Q: Name the recorded pKd of the molecule listed here: `Nc1nc2c(ncn2[C@@H]2O[C@H](COP(=O)(O)O[C@H]3[C@@H](O)[C@H](n4cnc5c(=O)[nH]c(N)nc54)O[C@@H]3COP(=O)(O)O)[C@@H](O)[C@H]2O)c(=O)[nH]1`
A: 6.68

Q: Give pKd for `Nc1nc2c(ncn2[C@@H]2O[C@H](COP(=O)(O)O)[C@@H](OP(=O)(O)OC[C@H]3O[C@@H](n4cnc5c(N)ncnc54)[C@H](O)[C@@H]3O)[C@H]2O)c(=O)[nH]1`
A: 6.44
